Measured IC50 of individual entries
system: MEG-01; assay: cells; type: functional, cell-based; settings: Homo sapiens;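 note: growth inhibition of MEG-01 cells, read out by a cell viability assay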
Description: SANGER: Inhibition of human MEG-01 cell growth in a cell viability assay.

The examples below pair each entry with its known result.
COC(=O)CNC(=O)C(=O)OC	484 µM
O=C(/C=C/c1ccccc1)NC(NC(=S)Nc1cccc2cccnc12)C(Cl)(Cl)Cl (stereo not drawn)	> 16 µM

Below: the item to evaluate.
Prompt: Find the recorded IC50 belonging to C=CCc1cccc(/C=N/NC(=O)CN2CCN(Cc3ccccc3)CC2)c1O and report it.
Completion: > 2.56 µM

###

test system: IST-MEL1; assay: cells; type: functional, cell-based, Homo sapiens; conditions: Homo sapiens, IST-MEL1;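 note: growth inhibition of the cell line, read out with a cell viability assay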
Description: SANGER: Inhibition of human IST-MEL1 cell growth in a cell viability assay.
pIC50: −log10 of the molar value.
Quick reference: pIC50 of the listed items.

As a guide, the following entries are already answered.
CCc1nc(N)nc(N)c1-c1ccc(Cl)cc1 [PYRIMETHAMINE]	5.36
CC1=C2C[C@H]3[C@@H](CC=C4C[C@@H](O)CC[C@@]43C)[C@@H]2CC[C@]12O[C@@H]1C[C@H](C)CN[C@H]1[C@H]2C [CYCLOPAMINE]	< 4.80
C=CCc1cccc(/C=N/NC(=O)CN2CCN(Cc3ccccc3)CC2)c1O [PAC-1]	< 5.59
Cn1cc(C2=C(c3ccc(Cl)cc3Cl)C(=O)NC2=O)c2ccccc21 [SB-216763]	< 5.00
CS(=O)(=O)CCNCc1ccc(-c2ccc3ncnc(Nc4ccc(OCc5cccc(F)c5)c(Cl)c4)c3c2)o1 [LAPATINIB]	< 5.70

Prompt: Entry Cc1ccc(Nc2nccc(N(C)c3ccc4c(C)n(C)nc4c3)n2)cc1S(N)(=O)=O [PAZOPANIB] : reported pIC50 = ?
Completion: < 5.10

Prompt: Would you kindly share the measured pIC50 for CCC1=C[C@@H]2CN(C1)Cc1c([nH]c3ccccc13)[C@@](C(=O)OC)(c1cc3c(cc1OC)N(C)[C@H]1[C@@](O)(C(=O)OC)[C@H](OC(C)=O)[C@]4(CC)C=CCN5CC[C@]31[C@@H]54)C2 [VINORELBINE] ?
Completion: < 7.19
